// provenance: patent US20240207277A1

Assay: Pharmacokinetics in humans after oral administration
Format: in vivo, human
Conditions: human, in vivo
quantity_kind: half-life

half-life for "CC(C)(C=C(C#N)C(=O)N1CCC[C@@H](n2nc(-c3ccc(Oc4ccccc4)cc3F)c3c(N)ncnc32)C1)N1CCN(C2COC2)CC1" ?
3 to 4 h
